- target under test: N-type calcium channel (α1B (Cav2.2), β3 and α2δ subunits) (Homo sapiens)
- Sequence (Q00975 whole entry): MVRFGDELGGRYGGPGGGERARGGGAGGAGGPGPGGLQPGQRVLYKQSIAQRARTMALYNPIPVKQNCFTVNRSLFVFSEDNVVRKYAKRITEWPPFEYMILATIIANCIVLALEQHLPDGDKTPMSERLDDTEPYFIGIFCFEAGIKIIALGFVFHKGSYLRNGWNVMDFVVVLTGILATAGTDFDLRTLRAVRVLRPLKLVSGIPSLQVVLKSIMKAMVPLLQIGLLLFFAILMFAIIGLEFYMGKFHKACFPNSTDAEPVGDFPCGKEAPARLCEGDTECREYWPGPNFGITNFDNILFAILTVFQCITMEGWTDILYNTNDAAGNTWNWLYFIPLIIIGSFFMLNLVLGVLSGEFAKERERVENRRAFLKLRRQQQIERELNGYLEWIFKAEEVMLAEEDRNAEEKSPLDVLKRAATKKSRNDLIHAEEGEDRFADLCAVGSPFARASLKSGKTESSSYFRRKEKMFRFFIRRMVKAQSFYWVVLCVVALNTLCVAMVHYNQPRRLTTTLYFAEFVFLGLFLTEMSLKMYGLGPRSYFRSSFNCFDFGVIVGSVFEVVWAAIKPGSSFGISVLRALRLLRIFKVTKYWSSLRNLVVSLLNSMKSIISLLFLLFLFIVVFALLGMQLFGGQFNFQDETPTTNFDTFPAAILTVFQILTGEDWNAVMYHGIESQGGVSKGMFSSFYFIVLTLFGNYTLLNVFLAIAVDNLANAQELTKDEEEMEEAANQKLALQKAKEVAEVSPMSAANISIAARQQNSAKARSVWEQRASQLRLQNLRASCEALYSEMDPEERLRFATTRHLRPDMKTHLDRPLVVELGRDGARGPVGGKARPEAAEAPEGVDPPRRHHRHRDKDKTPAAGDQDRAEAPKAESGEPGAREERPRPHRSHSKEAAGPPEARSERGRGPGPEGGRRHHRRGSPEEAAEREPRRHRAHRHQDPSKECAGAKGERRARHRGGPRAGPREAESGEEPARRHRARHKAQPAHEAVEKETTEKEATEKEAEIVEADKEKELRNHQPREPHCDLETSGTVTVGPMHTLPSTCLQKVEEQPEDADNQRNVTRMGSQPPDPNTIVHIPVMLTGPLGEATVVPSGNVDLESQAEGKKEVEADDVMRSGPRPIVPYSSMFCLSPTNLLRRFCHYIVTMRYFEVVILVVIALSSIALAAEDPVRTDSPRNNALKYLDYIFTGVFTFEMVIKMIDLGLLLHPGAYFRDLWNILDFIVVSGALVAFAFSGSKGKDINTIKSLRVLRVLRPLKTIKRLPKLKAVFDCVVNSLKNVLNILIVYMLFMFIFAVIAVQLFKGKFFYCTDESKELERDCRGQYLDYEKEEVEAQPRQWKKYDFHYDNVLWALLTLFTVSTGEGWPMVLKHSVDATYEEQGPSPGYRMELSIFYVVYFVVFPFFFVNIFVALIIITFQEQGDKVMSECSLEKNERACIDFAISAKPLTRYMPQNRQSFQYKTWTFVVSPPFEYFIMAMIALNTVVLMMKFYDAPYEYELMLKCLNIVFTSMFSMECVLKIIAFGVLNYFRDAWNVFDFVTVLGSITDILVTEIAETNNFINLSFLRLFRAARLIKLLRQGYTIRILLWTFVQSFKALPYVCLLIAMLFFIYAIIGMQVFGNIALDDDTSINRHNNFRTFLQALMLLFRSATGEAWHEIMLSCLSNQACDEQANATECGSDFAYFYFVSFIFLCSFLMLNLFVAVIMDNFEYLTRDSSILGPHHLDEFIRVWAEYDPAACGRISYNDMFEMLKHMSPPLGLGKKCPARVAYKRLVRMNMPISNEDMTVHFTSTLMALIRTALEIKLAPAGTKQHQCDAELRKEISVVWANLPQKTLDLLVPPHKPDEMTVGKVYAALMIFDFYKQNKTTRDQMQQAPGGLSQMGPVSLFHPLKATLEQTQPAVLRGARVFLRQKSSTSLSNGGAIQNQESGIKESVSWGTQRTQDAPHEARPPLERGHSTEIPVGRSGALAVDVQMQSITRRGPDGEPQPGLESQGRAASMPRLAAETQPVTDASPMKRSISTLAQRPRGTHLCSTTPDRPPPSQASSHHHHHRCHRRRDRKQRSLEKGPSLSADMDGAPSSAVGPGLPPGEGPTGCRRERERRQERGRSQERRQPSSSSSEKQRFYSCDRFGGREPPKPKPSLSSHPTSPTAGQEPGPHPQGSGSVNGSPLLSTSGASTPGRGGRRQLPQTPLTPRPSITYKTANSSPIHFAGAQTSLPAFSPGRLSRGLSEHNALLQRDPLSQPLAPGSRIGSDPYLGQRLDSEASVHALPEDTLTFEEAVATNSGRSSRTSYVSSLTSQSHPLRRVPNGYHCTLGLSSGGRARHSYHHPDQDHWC
- Sequence (P54284 whole entry partner): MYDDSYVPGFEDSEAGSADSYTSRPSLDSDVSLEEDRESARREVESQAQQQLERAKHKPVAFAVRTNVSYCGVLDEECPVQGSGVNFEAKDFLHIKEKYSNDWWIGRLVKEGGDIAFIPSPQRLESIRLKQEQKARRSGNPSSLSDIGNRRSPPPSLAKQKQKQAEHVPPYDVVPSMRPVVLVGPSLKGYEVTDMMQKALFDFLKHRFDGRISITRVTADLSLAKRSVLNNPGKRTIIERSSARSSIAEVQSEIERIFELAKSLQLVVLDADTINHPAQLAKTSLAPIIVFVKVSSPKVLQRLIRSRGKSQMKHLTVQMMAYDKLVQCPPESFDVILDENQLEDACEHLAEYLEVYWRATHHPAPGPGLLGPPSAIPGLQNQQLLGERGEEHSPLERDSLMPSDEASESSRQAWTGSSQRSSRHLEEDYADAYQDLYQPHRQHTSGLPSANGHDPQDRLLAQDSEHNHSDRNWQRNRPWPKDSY
- Sequence (P54289 25-946 partner limits assumed): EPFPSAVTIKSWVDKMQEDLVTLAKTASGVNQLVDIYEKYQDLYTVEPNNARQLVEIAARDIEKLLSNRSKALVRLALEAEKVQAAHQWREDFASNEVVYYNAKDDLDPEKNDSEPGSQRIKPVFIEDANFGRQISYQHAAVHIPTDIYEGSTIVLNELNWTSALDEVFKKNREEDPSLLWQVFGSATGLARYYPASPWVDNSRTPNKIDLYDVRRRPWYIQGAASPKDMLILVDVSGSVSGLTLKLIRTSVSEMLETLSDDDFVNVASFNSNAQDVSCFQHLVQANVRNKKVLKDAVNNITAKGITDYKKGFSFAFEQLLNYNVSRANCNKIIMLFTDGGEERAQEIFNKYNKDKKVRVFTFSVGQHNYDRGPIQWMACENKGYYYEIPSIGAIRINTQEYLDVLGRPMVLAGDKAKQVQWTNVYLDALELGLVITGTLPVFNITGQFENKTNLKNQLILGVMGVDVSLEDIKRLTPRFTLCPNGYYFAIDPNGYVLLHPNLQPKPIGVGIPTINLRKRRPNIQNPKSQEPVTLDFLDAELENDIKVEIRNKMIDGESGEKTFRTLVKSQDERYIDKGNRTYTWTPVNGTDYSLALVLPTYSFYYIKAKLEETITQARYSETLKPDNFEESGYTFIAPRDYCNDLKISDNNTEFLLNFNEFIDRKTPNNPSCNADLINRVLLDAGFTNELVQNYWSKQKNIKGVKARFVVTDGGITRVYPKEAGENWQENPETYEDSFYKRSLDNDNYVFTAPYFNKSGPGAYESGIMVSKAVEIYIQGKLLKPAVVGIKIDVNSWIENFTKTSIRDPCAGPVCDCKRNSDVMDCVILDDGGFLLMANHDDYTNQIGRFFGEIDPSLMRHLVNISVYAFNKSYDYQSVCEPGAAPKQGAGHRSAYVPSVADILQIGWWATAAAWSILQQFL
- Sequence (P54289 947-1103 partner limits assumed): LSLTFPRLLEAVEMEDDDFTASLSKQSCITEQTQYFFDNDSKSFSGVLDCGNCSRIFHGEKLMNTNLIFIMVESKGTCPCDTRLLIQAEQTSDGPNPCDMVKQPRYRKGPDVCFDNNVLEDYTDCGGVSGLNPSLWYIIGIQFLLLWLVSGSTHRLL
- test: Functional Assay: Antagonism of N-Type Calcium Channel (FDSS calcium mobilization, KCl depolarization)
- Assay type: cell-based
- measurement parameters: HEK cell line, 50 mM KCl depolarization, six-point concentration-response; read-out: FDSS IC50
experimental readout: IC50 (nM)

# count of solved cases: 2
| compound | display unit | IC50 |
| --- | --- | --- |
| CCOC(=O)C1Cc2nn(-c3ccccc3OC)c(-c3ccc(Cl)cc3)c2C1 (centres unmarked) | nM | 43 |
| COc1ccccc1-n1nc2c(c1-c1ccc(C)nc1)CC1(C2)OCC(C)(C)CO1 | nM | 110 |

1. O=C1Cc2nn(-c3ccccc3OC(F)(F)F)c(-c3ccc(Cl)cc3)c2C1
2. COc1ccccc1-n1nc2c(c1-c1ccc(Cl)cc1)CC(c1ccc(OC(C)C)nc1)C2 (centres unmarked)
Q: Choose between 1 and 2 : whose measured IC50 value is numerically larger? Which one? Tell me its label.
Result: 2

a. COc1ccccc1-n1nc2c(c1-c1ccc(Cl)cc1)CC(c1ccc(C(C)C)nc1Cl)C2 (centres unmarked)
b. CCOc1ccccc1-n1nc2c(c1-c1ccc(Cl)cc1)CC(OC(=O)N1CCOCC1)C2 (centres unmarked)
Q: Compare the recorded IC50 of a and b ; state which is larger. Lab note: record the label of whichever item you select.
Result: a
(a: 230 nM, b: 18 nM)
